Molecular target: NLRP3 inflammasome (Homo sapiens (Human), UniProt Q96P20)
Sequence (Q96P20 whole entry): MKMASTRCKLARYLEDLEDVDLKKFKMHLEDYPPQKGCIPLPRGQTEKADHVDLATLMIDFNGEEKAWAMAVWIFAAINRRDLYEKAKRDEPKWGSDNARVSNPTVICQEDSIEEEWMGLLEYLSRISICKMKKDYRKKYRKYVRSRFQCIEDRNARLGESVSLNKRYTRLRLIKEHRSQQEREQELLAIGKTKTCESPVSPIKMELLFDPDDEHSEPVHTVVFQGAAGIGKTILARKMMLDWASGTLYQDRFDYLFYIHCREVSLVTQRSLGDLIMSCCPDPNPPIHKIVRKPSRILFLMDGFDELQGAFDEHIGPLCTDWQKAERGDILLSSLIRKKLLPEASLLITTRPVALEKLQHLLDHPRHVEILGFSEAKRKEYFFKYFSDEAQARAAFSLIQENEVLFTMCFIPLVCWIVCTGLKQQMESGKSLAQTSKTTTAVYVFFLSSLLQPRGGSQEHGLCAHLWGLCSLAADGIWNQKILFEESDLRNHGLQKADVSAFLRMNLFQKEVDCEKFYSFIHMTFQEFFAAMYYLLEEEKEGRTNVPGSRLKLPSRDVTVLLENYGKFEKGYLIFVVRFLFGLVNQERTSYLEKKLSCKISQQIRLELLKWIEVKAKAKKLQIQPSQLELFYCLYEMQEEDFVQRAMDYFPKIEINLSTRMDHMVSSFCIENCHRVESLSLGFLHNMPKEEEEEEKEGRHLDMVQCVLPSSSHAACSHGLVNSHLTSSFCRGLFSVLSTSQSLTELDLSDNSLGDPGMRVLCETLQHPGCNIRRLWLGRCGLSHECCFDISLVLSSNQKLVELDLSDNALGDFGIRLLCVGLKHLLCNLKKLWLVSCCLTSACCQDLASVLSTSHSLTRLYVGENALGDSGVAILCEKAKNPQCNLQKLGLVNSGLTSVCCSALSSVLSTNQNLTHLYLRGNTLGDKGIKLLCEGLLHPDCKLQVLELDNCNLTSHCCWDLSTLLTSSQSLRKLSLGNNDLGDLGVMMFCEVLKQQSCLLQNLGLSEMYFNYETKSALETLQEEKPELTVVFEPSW
Assay: Evaluation of NLRP3 inflammasome inhibitory activity (inhibition of IL-1β production in THP1-Null cells, LPS/Nigericin)
Details: IL-1β production in THP1-Null cells, PMA/LPS primed, Nigericin 7.5 μmol/L
Readout Type: IC50

For orientation, consider the following solved cases.
Smiles Input	Val
CC(C)N(C)S(=O)(=O)NC(=O)c1cnc(Nc2c3c(cc4c2CCC4)CCC3)o1	< 30 nM
Cc1ccc(C(F)(F)F)cc1Nc1nc(C(=O)NS(=O)(=O)N2CCOCC2)co1	< 30 nM
O=C(NS(=O)(=O)N1CC2CCC(C1)O2)c1coc(Nc2c3c(c(Cl)c4c2CCC4)CCC3)n1	< 30 nM

Data point: O=C(NS(=O)(=O)N1CCOCC1)c1coc(Nc2c3c(c(Cl)c4c2CCC4)CCC3)n1 ; IC50 = < 30 nM

Data point: CS(=O)(=O)C1CCN(S(=O)(=O)NC(=O)c2coc(Nc3c4c(c(Cl)c5c3CCC5)CCC4)n2)CC1 ; IC50 = < 30 nM

Data point: O=C(NS(=O)(=O)N1CCCC1)c1cnc(Nc2c3c(cc4c2CCC4)CCC3)o1 ; IC50 = < 30 nM

* * *

Target: NLRP3 inflammasome (Homo sapiens (Human))
Test: Evaluation of NLRP3 inflammasome inhibitory activity (inhibition of IL-1β production in THP1-Null cells, LPS/Nigericin)
Settings: inhibition of IL-1β production in THP1-Null cells
pIC50: −log10 of the molar value.
Each record here notes measured pIC50.

Smiles Input	Val
Cc1ccc(C(C)C)cc1Nc1nc(C(=O)NS(=O)(=O)N2CCCOCC2)cs1	> 7.52
Cc1ccc(C(F)(F)F)cc1Nc1nc(C(=O)NS(=O)(=O)N2CCCOCC2)cs1	> 7.52
Cc1ccc(C(F)(F)F)cc1Nc1nc(C(=O)NS(=O)(=O)N2CCc3nncn3CC2)co1	> 5.52

Proceed to the following item.
Data point: CC(C)c1cn(C(C)C)nc1Nc1nc(C(=O)NS(=O)(=O)N2CCCOCC2)co1 ; pIC50 = 7.07

* * *

Target: NLRP3 inflammasome (Homo sapiens (Human), UniProt Q96P20)
Assay: Evaluation of NLRP3 inflammasome inhibitory activity (inhibition of IL-1β production in THP1-Null cells, LPS/Nigericin)
Conditions: inhibition of IL-1β production in THP1-Null cells
Each record here notes measured IC50.
Answer with a number only, understood to be in nM.

Compound	System	IC50 [nM]
CC(C)c1ccc(C(F)F)cc1Nc1nc(C(=O)NS(=O)(=O)N(C)C)co1 [Example 2-105]	NLRP3 inflammasome (Homo sapiens (Human), UniProt Q96P20)	86

Data point: Cc1ccc(C(F)(F)F)cc1Nc1nc(C(=O)NS(=O)(=O)N(C)C)cs1 [Example 2-062] ; IC50 = 48

* * *

Each record here notes measured IC50.
Target: NLRP3 inflammasome (Homo sapiens (Human))
Assay: Evaluation of NLRP3 inflammasome inhibitory activity (inhibition of IL-1β production in THP1-Null cells, LPS/Nigericin)
Conditions: inhibition of IL-1β production in THP1-Null cells
Answer with a number only, understood to be in nM.

For orientation, consider the following solved cases.
Compound	Val
CC(C)c1ccc2c(c1Nc1nc(C(=O)NS(=O)(=O)N3CCCOCC3)co1)CCC2 [Example 2-119]	96
Cc1cnn(C2CCCN(S(=O)(=O)NC(=O)c3coc(Nc4cc(C(F)(F)F)ccc4C)n3)CC2)c1 (centres unmarked) [Example 2-298]	67
Cc1ccc(C(C)(F)F)cc1Nc1nc(C(=O)NS(=O)(=O)N2CCOCC2)co1 [Example 2-015]	38
COCC1CCN(S(=O)(=O)NC(=O)c2coc(Nc3cc(C(F)F)ccc3C)n2)CCO1 (centres unmarked) [Example 2-327]	29
CC(C)c1ccc(OC(F)(F)F)c(Nc2nc(C(=O)NS(=O)(=O)N3CCCOCC3)co2)c1 [Example 2-175]	400

Proceed to the following item.
Data point: CCCCS(=O)(=O)N1CCCN(S(=O)(=O)NC(=O)c2coc(Nc3cc(C(F)F)ccc3C(C)C)n2)CC1 [Example 2-225] ; IC50 = 36
